neutralisation median IC50: recorded values
target: VRC01-resistant viruses
Numbers only here, please. The scale is µg/mL.

See these solved cases before continuing.
BINDER	MEASURE UNIT	neutralisation median IC50
N6 N17FRH3 (antibody, V domains shown) VH: RAHLVQSGTAMKKPGASVRVSCQTSGYTFTAHILFWFRQAPGRGLEWVGWIKPQYGAVNFGGGFRDRVTLTRDIYRDTAYMDISGLRFDDTAVYYCARDRSYGDSSWALDAWGQGTTVVVSA VL: YIHVTQSPSSLSVSIGDRVTINCQTSQGVGSDLHWYQHKPGRAPKLLIHHTSSVEDGVPSRFSGSGFHTSFNLTISDLQADDIATYYCQVLQFFGRGSRLHIK	µg/mL	0.18
N6 VRC27FRH2 (antibody, V domains shown) VH: RAHLVQSGTAMKKPGASVRVSCQTSGYTFTAHILFWFRQAPGRSFEWMGWIKPQYGAVNFGGGFRDRVTLTRDVYREIAYMDIRGLKPDDTAVYYCARDRSYGDSSWALDAWGQGTTVVVSA VL: YIHVTQSPSSLSVSIGDRVTINCQTSQGVGSDLHWYQHKPGRAPKLLIHHTSSVEDGVPSRFSGSGFHTSFNLTISDLQADDIATYYCQVLQFFGRGSRLHIK	µg/mL	0.195
N6 VRC27CDRH2 (antibody, V domains shown) VH: RAHLVQSGTAMKKPGASVRVSCQTSGYTFTAHILFWFRQAPGRGLEWVGWIKPKFGAVNYAHSFQGRVTLTRDVYREIAYMDIRGLKPDDTAVYYCARDRSYGDSSWALDAWGQGTTVVVSA VL: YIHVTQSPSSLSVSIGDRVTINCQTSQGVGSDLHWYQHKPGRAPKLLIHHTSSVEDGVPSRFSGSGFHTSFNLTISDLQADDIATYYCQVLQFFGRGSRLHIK	µg/mL	1.37
N6 N17FRH1 (antibody, V domains shown) VH: RAHLVQSGTAVKRPGASVRVSCETSGYTFTAHILFWFRQAPGRGLEWVGWIKPQYGAVNFGGGFRDRVTLTRDVYREIAYMDIRGLKPDDTAVYYCARDRSYGDSSWALDAWGQGTTVVVSA VL: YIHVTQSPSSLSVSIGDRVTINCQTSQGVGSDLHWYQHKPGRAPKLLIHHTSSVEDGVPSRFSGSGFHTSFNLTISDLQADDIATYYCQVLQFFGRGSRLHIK	µg/mL	0.111
N6 VRC27CDRH3 (antibody, V domains shown) VH: RAHLVQSGTAMKKPGASVRVSCQTSGYTFTAHILFWFRQAPGRGLEWVGWIKPQYGAVNFGGGFRDRVTLTRDVYREIAYMDIRGLKPDDTAVYYCARDRLYDGSSWRLDPWGQGTTVVVSA VL: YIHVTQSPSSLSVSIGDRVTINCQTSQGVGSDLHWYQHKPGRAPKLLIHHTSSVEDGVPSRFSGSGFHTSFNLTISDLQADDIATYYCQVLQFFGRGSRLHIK	µg/mL	0.167
N6 VRC27FRH1 (antibody, V domains shown) VH: SQRLVQSGPQVRKPGSSVRISCETSGYTFNAHILFWFRQAPGRGLEWVGWIKPQYGAVNFGGGFRDRVTLTRDVYREIAYMDIRGLKPDDTAVYYCARDRSYGDSSWALDAWGQGTTVVVSA VL: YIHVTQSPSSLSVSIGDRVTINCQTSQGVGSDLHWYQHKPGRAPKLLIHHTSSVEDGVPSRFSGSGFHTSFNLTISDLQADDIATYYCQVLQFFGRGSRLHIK	µg/mL	0.373

Tell me neutralisation median IC50 reported for N6 VRC27FRH3 (antibody, V domains shown) VH: RAHLVQSGTAMKKPGASVRVSCQTSGYTFTAHILFWFRQAPGRGLEWVGWIKPQYGAVNFGGGFRDRITLTRDIYRETAFLDLTGLRFDDTAVYYCARDRSYGDSSWALDAWGQGTTVVVSA VL: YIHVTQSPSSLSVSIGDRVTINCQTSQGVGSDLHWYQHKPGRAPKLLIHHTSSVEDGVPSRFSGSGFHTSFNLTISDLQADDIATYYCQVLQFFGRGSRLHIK
0.525
